Where do the numbers come from? From PubChem BioAssay (NCI).

# Test system: SK-MEL-5 melanoma
# measurement_protocol: NCI tumour cell line growth inhibition, 48 h
Rule: TGI under 10 µM gives not met, otherwise met.

compound=COc1ccc2c(c1)c1nn(CCN(C)C)c3ccc4c(=O)n(CCN(C)C)c(=O)n2c4c13 experimental_target="SK-MEL-5 melanoma" assigned_category="not met"
compound=S=c1[nH]nc(COc2ccc(Cl)cc2)o1 experimental_target="SK-MEL-5 melanoma" assigned_category=met
compound="OC1c2ccccc2[C@@H]2[C@H]1[C@@H](c1ccccc1)C1(Cc3ccccc3C1O)[C@H]2c1ccccc1 (stereo not given in full)" experimental_target="SK-MEL-5 melanoma" assigned_category=met
compound=O=C1/C(=C\c2ccc([N+](=O)[O-])cc2)Sc2scc(-c3ccc(O)c(O)c3)[n+]21 experimental_target="SK-MEL-5 melanoma" assigned_category=met
compound=CC1(C)N=C(N)N=C(N)N1c1cccc(/C=C/C=C/c2cccc([N+](=O)[O-])c2)c1 experimental_target="SK-MEL-5 melanoma" assigned_category=met

State whether the measured TGI reaches 10 µM, counting equality as reaching it, for Cc1cn(CC2=NCCN2)c(=O)[nH]c1=O
met

State whether the measured TGI reaches 10 µM, counting equality as reaching it, for COc1c(Cl)ccc(Cl)c1C(=O)NNC(=O)c1c(Cl)c(Cl)c(Cl)c(Cl)c1-c1nc2ccc(C(=O)c3ccccc3)cc2[nH]1
met
